Assay: yeast display, Sf9 membrane polyspecificity reagent, FACS + sequencing; frameworks hold sequencing errors
reportedMetric: polyreactivity (PSR sort gate)

Here are 4 sequences together with their reported answers.
QVQLVESGGGLVQAGGTLRLSCPASGRNILGYAMGWYRPAPGKERELVAALRRSGGHTFYADSVKGRFTISRDNAKNRVYFQMNSLKPEDTAVYYCAASTSGAIRRDGFWGQGTQVSVSS : low polyreactivity
QVQLVESGGGLVQAGGSLRLSCAASGFTISQYAMGWYRQAPGKERELVAAISASGGRTYYADSVKGRFTISRDNAKNTVYLQMNSLKPDDTAVYYCAAKLYVSGGRYWYDYWGQGTQVTVSS : high polyreactivity
QVQLLESWGGLVQAGGSLRLSCAASGFIFRGYAMGWYRQAPGKDRELVAAISTGGGRTYYADSVKGRFTISRDNAKNTVYLQMNSLKPDDTAVYYCIRRSYTQVLMDYWGQGTQVTVSS : high polyreactivity
QVQLVESGGGLVQAGGSLRLTCDASGITFRLYAMGWSRQAPGKETELVARITDRGSTYYADSVKGRFTISRDNAKNTVYLQMNSLKPEDTAVYYCAARGYRGLVQLRYGYWGQGTQVTVSS : high polyreactivity

Now look at this one.
QUERY: I am curious: what polyreactivity (PSR sort gate) value has been reported for QVQLVESGGGLVQPGGSLRLSCAASGIIFDVYAMGWYRQAPGKERELVAGISSGGSTYYADSVKGRFTISRDNAKNTVYFQMNSLKPEDTAVYYCNADGGYSYESTDHYGYDYWGQGTQVTVSS ?
RESULT: low polyreactivity

###

Experiment: yeast display, Sf9 membrane polyspecificity reagent, FACS + sequencing; frameworks hold sequencing errors
reportedMetric: polyreactivity (PSR sort gate)

Here are 4 sequences together with their reported answers.
QVQLVESGGGLVQAGGSLRLSCAASGYIFRSNAMGWYRQAPGKERELVAAISGGGRTNYADSVKGRFTISRDNAKNTVYLQMNSLKPEDTAVYYCAAGGYYQRTRGYWGQATQVTVSS : high polyreactivity
QVQVVESGGGLVQAGGSLRLSCAASGSSFGVNAMGRYTQAPGKERELVASITWSGDNTYYADSVKGRFTISRDNAKNTVYLQMNSLKPEDTAVYYCAATIWIAYRGWYSDYNYWGQGTQVTVSS : low polyreactivity
QVQLVESGGGLVQAGGSLRLSCAASGLIFGTYAMGWYRQAPGKERELVAVISSSGGSTYYADSVKGRFTISRDNAKNTVYLQLNSLKPEDTAVYYCNARAFRQGHFEYDYWGQGTQVTVSS : low polyreactivity
QVQLVESGGGLVQAGGSLRLSCAASGFIFRQNAMGWSRQAPGKDRELVAAISNAGITNYADSVKGRFTISRDNAKITVYLQMNSLKPEDTAVYYCAAVEFRDSTFVVVSSPTSKSDYWGQGTQVTVSS : low polyreactivity

Now look at this one.
QUERY: I am curious: what polyreactivity (PSR sort gate) value has been reported for QVQLVESGGGLVQAGGSLRLSCAASGRTFYFYTMGWYRQAPGIERELVATIRWSAGSTYSADSVKGRFTISRDNAKNTVYLQMTSLKPEDTAVYYCNADPYVYSSWQYGYWGQGTQVTVSS ?
RESULT: high polyreactivity

###

Assay: yeast display, Sf9 membrane polyspecificity reagent, FACS + sequencing; frameworks hold sequencing errors
reportedMetric: polyreactivity (PSR sort gate)

Here are 4 sequences together with their reported answers.
QVQLVESGGGLVQAGGSLRLSCAAYGYTLYHNAMGWYRQAPGKERELVAAITSSGGRTYYADSVKGRFTISRDNAKNTVYLQMNRLKPDDTAVYYCNAVVWVYSISLSYTGTKYEYWGQGTQVTVSS : high polyreactivity
QVQLVESGGGLVQAGGSLRLSCAASGRTFVYNAMVWYRQAPGKEREFVAAISWRGGSTFYADSVKGRFTISRDNAKNTVYLQMNSLKPEDTAVYYCAAEGWYYRYDYWGQGTQVTVSS : high polyreactivity
QVQLVESGGGLVQAGGSLRLSCAASGLTFDYYAMGWSRQAPGKERELVAAITSSGGRTYYADSVKGRFTISRDNAKNTVYLQMNSLKPEDTAVYYCAKRDSYYNGVGYWGQGTQVTVSS : low polyreactivity
QVQLVESGGGLVQAGGSLRLSCAASGRIFRDYDMGWYRQAPGKERELVASISTRGGSTYADSVKGRFTISRDNAKNTVYLQMNSLKPEDTAVYYCAADSSGFSRYDYWGQGSQVTVSS : low polyreactivity

Now look at this one.
QUERY: I am curious: what polyreactivity (PSR sort gate) value has been reported for QVQLVESVGGLVQAGGSLRLSCASSGFIFATNTMGCYRQAPGKERALVAAMSRSGGSTYYADSVKGRFTISRDNAKNTVYLQMNSLKPEDTAVYYCAADVRLRSTRARFDYWGQGTQVTVSS ?
RESULT: high polyreactivity

###

Test: yeast display, Sf9 membrane polyspecificity reagent, FACS + sequencing; frameworks hold sequencing errors
reportedMetric: polyreactivity (PSR sort gate)

QVQLVESGGGLVQAGGSLRFSCAASGFTLQQYTMGWYRQAPGKERELVAAISTSGVRTYYADSVKGRFTISRDNAKNTVYLQMNSLKPEDTAVYYCNAAWVYGIGWYSGYDYWGQGTQVTVSS : high polyreactivity
QVQLEESGGGLVQAGGSLRLSCAASGIIFGRYTMGWYREAPGKERELVAAITSSGITYYADSVKGRFTISRDNAKNTVYLQMNSLKPEDTAVYYCAADSPVSVTADDGYWGQGTQVTVSS : low polyreactivity
QVQLVESGGGLVQAGGSLRLSCAASGYTFPKYAMGWYRQAPGKERELVAAITKRGGRTYSADSVKGRFTISRDNAKNTVYLQMNSLKPEDTAVYYCAVDLDGPEYSQVHYDYWGQGTQVTVSS : high polyreactivity
QVQLVESGGCLVQAGGSLRLSWDASGSIFLGYTIGWYRQAPGKERELVAAINSSGGSTYYAYSVKGRFTISRDNAKNTVFLQMNSLKPDDTAVYYCADANSILLFDSWGQGTQVTVSS : low polyreactivity
QVQLVESGGGLVQAGGSLRLSCAASGSNYRFYAMGWYRQAPGKERELVATISSSGGTTYYADSVKVRITISRDNAKNNVFLQMNSLKPEDTAVYYCAKDAFGWGRVYYYRSGYWGQGTQVTVSS : high polyreactivity
QVQLVESGGGLVQAGGSLRISCAASGITFQSNAMGWYRQAPGTERELVAGITGNGGSTYYADSVKGRFTISRDNAKNTVYLQMNSLKPEDTAVYYCNIGRRKRTRYDYWGQGTQGTVSS : high polyreactivity
QVQLVESGGGLVQAGGSLRLSCAASGSILRSNAMGWYRQAPGKERELVAAITFNGGSTYADSVKGRFTISRDNAKNTVYLQMNSLKPEDTAVYYCATGDGPSLFDYWGQGTQVTVSS : low polyreactivity
QVQLEESGGGLVQAGGSLRLSCAASGRTFYRYAMGWYRQAPGKERELVATISSRGTSTYYADSVKGRFTISRDNAKNTVYLQMNSLKPEDTAVYYCAVRGYAAGRHGYDYWGQGTQVTVSS : high polyreactivity
QVQLVESGGGLVQAGGSLRLSCAASGLTFQSYAMGWYRQAPGKERELVATISNGSSTYYADSVKGRFTISRDNAKNSVYLQMNSLKPEDTAVYYCAKDYYYSRNPLYGHDYWGQGTQVTVSS : low polyreactivity
QVQLVESGGGLVQAGGSLRLSSAGSGFTFYKNAMGWYRQAPGKERELVAAITSSGGSTYYADSVKGRFTISRDNEKNTVYLQMNSLKPEDTAVYYCNKVYSKHYGYWGQGSQVTVSS : high polyreactivity

Now look at this one.
QUERY: I am curious: what polyreactivity (PSR sort gate) value has been reported for QVQLVESGLGLLQAGGSLRLSCAASGFIFRLYTMGRYREAPGKVRELVASISSAGSTNYADSVKGRFTISLDNAKNTVYLQMNSLKPDDTAVYDCDKYYGQFYPPTLGYWGQCTQVTVSS ?
RESULT: low polyreactivity

###

Assay: yeast display, Sf9 membrane polyspecificity reagent, FACS + sequencing; frameworks hold sequencing errors
reportedMetric: polyreactivity (PSR sort gate)

Here are 8 sequences together with their reported answers.
QVQLLESVGGLVQAGGRLRLTCDATGSIFRYYAMGWYRQEPGKERELVATISSGGRTYYADSVKGRFTISRDNAKNTVYLQMNSLKPEDTAVYYCAKVGWSRRYYYWGQGTQVTVSS : high polyreactivity
QVQLVESGGGLVQAGGSLRLSCAASGSIFSYYAMGWYRQAPGKERELVAAITTSGGSTYYADSVKGRVTISRDNAKNTVYLQMNSLKPEDTAVYYCAAETAWYITTGYDYWGQGTQVTVSS : low polyreactivity
QVQLVESGGCLVQAGGSLRLSCAASGSTFKTYTMGWYRQAPGKERELVAAITWSGGRTYYADSGKGRFTISRDNAKNTVYLQMNSLKPEDTAVYYCAADWGEEYTRDDYCGQGTQVTVSS : low polyreactivity
QVQLVESGGGLVQAGGSLRLSCAASGRTFRRYAMGWYRQAPGKERELVAVISGGGTYYADSVKGRFTISRDNAKNTVYLQMNSLKPEDTAVYYCATDSYSSLYGYDYWGQGTQVTVSS : high polyreactivity
QVQLVESGGGLVQAGGSLRLRCAASGRTFWKNAMGWYRQEPRKECELVAAISWGGGSTYYADSVKGRFTISRDNAKNTVYLQMNSLKPEDTAVYYCNVYYRRVLLGFYYWGQGTQVTVSS : low polyreactivity
QVQLVESGGGLVQAGGSLRLRCAASGIIFDGNVMGWYSQAPGKEREFVASISISGGSTSYADSVKGRFTISRDNAKNTVYLQMNSLNPEDTAVYYCNTDVGYGRVWRWRYHGDYWGQGTQVTVSS : low polyreactivity
QVQLVESGGGLVQAGGSLRLSCAASGRIFYYNVMGWYRQAPGKERELVADIRSGDRTYYADSVKGRFTISRDNAKNTVYLQMNSLKPEDTAVYYCAADGWYRRGYYYWGQGTQVTVSS : low polyreactivity
QVQLVESGGGLVQAGGSLRLSCAASGFTLGWYAMGWYRQAPGKERELVASINWDGGSTYYADSVKGRFTISRDNAKNTVYLQMNSLKPEDTAVYYCNAVNKWFPKVGYNYWGQGTQVTVSS : high polyreactivity

QUERY: I am curious: what polyreactivity (PSR sort gate) value has been reported for QVQLVESGGGLVQAGGSLRLSCAASGRTLYKYAMGWYRQAPGKERELVAAISRNGGSTYYADSVKGRFTISRDNAKNTVYLQMNSLKPEDTAVYYCNKRWGYQYLWVADYDYWGQGTQVTVSS ?
RESULT: high polyreactivity

QUERY: One more sequence: QVQLVESGGGLVQAGGSLRLSCAASGRIFGRNAMGWYRQAPGKERELVAAISSGGGRTYYADSVKGRFTISRDNAKNTVYLQMNSLKPEDTSVYYCAAEDWYEYDYWGQGTQVTVSS
RESULT: high polyreactivity

QUERY: One more sequence: QVQLVESGGGLVQAGGSLRLSCAASGSIFSVNAMGWYRQAPGTEREFVASINFRGGRTYYADSVKGRFRISRDNAKNTVYLQMNCLKPEDTADYYCAAVITLTDTGYGPSFRVFYWGQGTQVTVSS
RESULT: high polyreactivity

QUERY: One more sequence: QVQLVESGGGLVQAGGSLRLSCAASGFTFSYYALGWYRQAPGKERELVAVISDRGGITYYADSVKGRFTISRDNAKNTVYLQMNSRKPEDTAVYYCAAQNPRYNYRYYYWGQGTQVTVSS
RESULT: low polyreactivity

QUERY: One more sequence: QVQLVESGGGLVQAGGSLRLSCAASGFTFDYNAMGWYRQAPGKERELVAGITSGGRTYYADSVKGRFTISRDNAKNTVYLQMNSLKPEDTAVYYCAATPEPPAYGTPLVPYSYDYWGQGTQVTVSS
RESULT: low polyreactivity

QUERY: One more sequence: QVQLVESGGGLVQAGGSLRLSCAASGNIFLYYAMGWYRPAPGKERELVADIDSSGAATYYADSVKGRFTISRDYAKNTVYLQMNSLKPEDTAVYYCAAEFHWWYAGYDYGYWGQGTQVTVSS
RESULT: low polyreactivity

QUERY: One more sequence: QVQLVESCGGLVQAGGSLRLSCAASGSIFVGNAMGWYRQAPGKERELVAAIDASGGNTYYADSVKGRFTISRDNAKNTVYLQMNSLKPEDTAVYYCNKYGYWWWGTRESDYWGQGTQVTVSS
RESULT: high polyreactivity

QUERY: One more sequence: QVQLVESGGGLVQAGGSLRLSCAASGSIFGLNAMGWYRQAPGKEREFVAAIDKNGAGTYYADSVKGRFTISRDNAKNTVYLQMNSLKPEDTAVYYCAAEYRSYGWYGYVVEYDYWGLGTQVTVSS
RESULT: high polyreactivity

QUERY: One more sequence: QVQLVESGGGLVQAGGSLRLSCAASGSTIGIYAMGGYRQAPGKERELVAAISSGGSTNYGDSVKGRFTISRDNEKNTVYLQMNSLKQEDTAVYYCAVESVYEYGGYVDSAYDYWGQGTQVTVSS
RESULT: low polyreactivity

QUERY: One more sequence: QVQLVESGGGLVQAGGSLRLSCAASGLIFGYNAMGWYRQAPGKEREYVAGISVIDGRTYYADSVKGRFTISRDNAKNTVYLQMNSLKPEDTAVYYCATEGFVYSWLWEFEYWGQGNQVTVSS
RESULT: low polyreactivity

QUERY: One more sequence: QVQLVESGGGLVQAGGSLRLSCAASGRICVYYAMGWYRQAPGKEREFVAAISWSGGSTYYADSVKGRFTISRDNAKNTVYLQMNSLKPEDTAVYYCAADVPWTVYYRWYDYWGQGTLVTVSS
RESULT: low polyreactivity

QUERY: One more sequence: QVQLVESGGGLVQAGGSLRLSCAASGFTLGDNAMGWYRQAPGTERELVAAISASGGSTYYADSVKGRFTISRDNEKNTVYLQMNSLKPEDTAVYYCILHGYKYDYWGQGTQVTVSS
RESULT: low polyreactivity

QUERY: One more sequence: QVQLVESGGGLVQAGGSLRLSCAASGTTFYRNAMGWYRQAPGKERELVAAISWTGGRTYYADSVKGRFTISRDNAKNTVYLQMNSLKPEDTAVYYCNKGDSASSLDYWGQGTQVTVSS
RESULT: high polyreactivity
